target: Prolyl endopeptidase (Sus scrofa, UniProt P23687); test: In vitro inhibitory activity against prolyl oligopeptidase (POP) from pig brain; value ranges from (44-110)
Sequence (P23687 whole entry): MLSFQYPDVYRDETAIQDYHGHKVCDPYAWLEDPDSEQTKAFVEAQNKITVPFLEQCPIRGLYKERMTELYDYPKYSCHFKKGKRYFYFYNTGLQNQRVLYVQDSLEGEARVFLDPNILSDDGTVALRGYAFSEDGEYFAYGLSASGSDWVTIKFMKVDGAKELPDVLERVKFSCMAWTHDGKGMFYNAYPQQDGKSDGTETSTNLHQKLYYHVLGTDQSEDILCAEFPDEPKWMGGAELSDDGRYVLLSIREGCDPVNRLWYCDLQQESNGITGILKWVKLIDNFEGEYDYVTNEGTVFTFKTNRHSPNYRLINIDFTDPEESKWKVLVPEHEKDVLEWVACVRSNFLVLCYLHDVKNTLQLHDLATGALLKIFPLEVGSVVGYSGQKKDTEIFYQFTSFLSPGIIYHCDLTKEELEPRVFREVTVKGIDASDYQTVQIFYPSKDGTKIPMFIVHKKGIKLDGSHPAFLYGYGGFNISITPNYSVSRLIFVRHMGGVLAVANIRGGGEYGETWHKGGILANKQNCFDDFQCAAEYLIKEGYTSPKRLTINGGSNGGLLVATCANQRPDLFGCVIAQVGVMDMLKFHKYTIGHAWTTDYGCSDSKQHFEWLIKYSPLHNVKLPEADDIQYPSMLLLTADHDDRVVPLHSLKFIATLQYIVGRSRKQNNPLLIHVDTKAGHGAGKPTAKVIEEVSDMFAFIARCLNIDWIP
metric: IC50 (nM)

INSERT INTO measurements (compound, observed) VALUES
  ('O=C(C1CCCN1C(=O)CCCCC(=O)N1CCC[C@H]1C(=O)N1CCCC1)N1CCCC1 (stereo partly specified)', 68);

====

molecular target: Prolyl endopeptidase (Sus scrofa, UniProt P23687); assay: In vitro inhibitory activity against prolyl oligopeptidase (POP) from pig brain; value ranges from (72-92)
pIC50: −log10 of the molar value.
metric: pIC50

INSERT INTO measurements (compound, tested_target, observed) VALUES
  ('O=C(C1CCCN1C(=O)c1ccc(C(=O)N2CCC[C@H]2C(=O)N2CCCC2)cc1)N1CCCC1 (stereo partly specified)', 'Prolyl endopeptidase (Sus scrofa, UniProt P23687)', 7.09);

====

target: Prolyl endopeptidase (Sus scrofa); test: In vitro inhibitory activity against prolyl oligopeptidase (POP) from pig brain; value ranges from (7800-54000)
metric: IC50 (µM)

INSERT INTO results (compound, tested_target, metric, observed) VALUES
  ('O=C(C1CCCN1C(=O)c1ccccc1C(=O)N1CCC[C@H]1C(=O)N1CCCC1)N1CCCC1 (stereo partly specified)', 'Prolyl endopeptidase (Sus scrofa)', 'IC50', 21);

====

target: Prolyl endopeptidase (Sus scrofa, UniProt P23687); test: In vitro inhibitory activity against prolyl oligopeptidase (POP) from pig brain; value ranges from (59 - 100)
pIC50: −log10 of the molar value.
metric: pIC50

INSERT INTO assay_data (compound, metric, observed) VALUES
  ('O=C(C1CCCN1C(=O)CCC(=O)N1CCC[C@H]1C(=O)N1CCCC1)N1CCCC1 (stereo partly specified)', 'pIC50', 7.11);
